Molecular target: Tyrosyl-tRNA synthetase, putative (Trypanosoma cruzi (strain CL Brener)) (UniProt Q4DSP6)
Sequence (Q4DSP6 as listed by the source): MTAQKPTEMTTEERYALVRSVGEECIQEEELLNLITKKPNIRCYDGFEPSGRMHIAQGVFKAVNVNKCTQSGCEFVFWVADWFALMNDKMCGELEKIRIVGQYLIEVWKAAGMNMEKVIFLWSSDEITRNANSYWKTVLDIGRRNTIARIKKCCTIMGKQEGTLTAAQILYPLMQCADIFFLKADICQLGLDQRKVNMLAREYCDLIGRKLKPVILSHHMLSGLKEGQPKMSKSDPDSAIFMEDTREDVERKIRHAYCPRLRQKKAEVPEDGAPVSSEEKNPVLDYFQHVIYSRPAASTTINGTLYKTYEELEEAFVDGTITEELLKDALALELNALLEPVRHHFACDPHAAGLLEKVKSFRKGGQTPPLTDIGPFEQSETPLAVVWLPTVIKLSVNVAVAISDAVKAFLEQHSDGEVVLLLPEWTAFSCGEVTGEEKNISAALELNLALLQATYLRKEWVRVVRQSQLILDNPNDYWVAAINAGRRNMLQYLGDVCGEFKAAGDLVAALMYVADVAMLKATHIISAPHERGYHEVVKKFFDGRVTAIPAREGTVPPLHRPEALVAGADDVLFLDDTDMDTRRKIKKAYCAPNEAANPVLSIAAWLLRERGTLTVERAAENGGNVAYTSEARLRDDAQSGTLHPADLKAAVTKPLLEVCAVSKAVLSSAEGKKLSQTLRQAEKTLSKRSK
Assay: Trypanosoma cruzi tyrosyl tRNA synthetase (TcYRS) _High Tyrosine SOP
Type: functional
Design: scale not given: in the data most compounds retested in dose-response had high values
Details: 30 µM
VALUE_KIND: Percent Effect (%)
Value expressed in %; do not type the unit.

As a guide, the following entries are already answered.
MOLECULE | TARGET_SYSTEM | Percent Effect [%]
CC(C#N)CSc1ccccc1NCC(=O)Nc1ccc(F)cc1 (configuration not stated) | Tyrosyl-tRNA synthetase, putative (Trypanosoma cruzi (strain CL Brener)) (UniProt Q4DSP6) | -8.6
CO[C@@H]1CCN(Cc2cnn(C)c2)[C@@H]2CN(Cc3ccco3)C[C@@H]21 | Tyrosyl-tRNA synthetase, putative (Trypanosoma cruzi (strain CL Brener)) (UniProt Q4DSP6) | 0
CC(C)n1ccnc1C1CCCN(c2ccnc3ccccc23)C1 (configuration not stated) | Tyrosyl-tRNA synthetase, putative (Trypanosoma cruzi (strain CL Brener)) (UniProt Q4DSP6) | 7.1
CCc1ccc(C(=O)N2CCN(CC(C)O)CC2)o1 (configuration not stated) | Tyrosyl-tRNA synthetase, putative (Trypanosoma cruzi (strain CL Brener)) (UniProt Q4DSP6) | 1.47
CN(Cc1nnc2n1CCC2)C(=O)Cc1ccc2c(c1)OCCO2 | Tyrosyl-tRNA synthetase, putative (Trypanosoma cruzi (strain CL Brener)) (UniProt Q4DSP6) | 4.43
N#Cc1ccc(C(=O)NCCCNc2ccc(C(F)(F)F)cn2)cc1 | Tyrosyl-tRNA synthetase, putative (Trypanosoma cruzi (strain CL Brener)) (UniProt Q4DSP6) | 7.35
CCOCC1CN(C(=O)CS(C)(=O)=O)Cc2cnn(C)c21 (configuration not stated) | Tyrosyl-tRNA synthetase, putative (Trypanosoma cruzi (strain CL Brener)) (UniProt Q4DSP6) | 2.08
CCCn1nc(C2CCNCC2)n(Cc2ccccc2)c1=O | Tyrosyl-tRNA synthetase, putative (Trypanosoma cruzi (strain CL Brener)) (UniProt Q4DSP6) | 5.82

Name the reported Percent Effect value associated with the molecule COc1ncccc1NC(=O)N1CCC(CN2CCOCC2)CC1
2.73

Let us now turn to O=C(COCc1nc(-c2ccncc2)no1)NC1CCCCC1
7.53

Again, but for CCc1nc(C2CCCN2CC(=O)Nc2sc(C)c(C)c2C)no1 (configuration not stated)
13.6

Same question, CC1c2ncc(Cn3cncn3)n2CCN1C(=O)C1CCOCC1 (configuration not stated) this time
3.12
